# method description: Elimination half life in ICR mouse plasma at 1 mg/kg, iv measured up to 24 hrs by LC-MS/MS analysis
# Format: ADME, organism-based
# condition context: read-out: beta t1/2 (converted)
endpoint: half-life
In your response, put the unit directly after the numeric value.

For the compound "O=C(c1ccc(-c2noc(-c3ccc(C(F)(F)F)cc3)n2)cc1)N1CCN(Cc2ccc(OCC(F)(F)F)cc2)CC1" , what half-life is on record? 9.06 h

* * *

# measurement target: Signal transducer and activator of transcription 3 (Homo sapiens, UniProt P40763)
# Sequence (P40763 whole entry, the tested form may be a part): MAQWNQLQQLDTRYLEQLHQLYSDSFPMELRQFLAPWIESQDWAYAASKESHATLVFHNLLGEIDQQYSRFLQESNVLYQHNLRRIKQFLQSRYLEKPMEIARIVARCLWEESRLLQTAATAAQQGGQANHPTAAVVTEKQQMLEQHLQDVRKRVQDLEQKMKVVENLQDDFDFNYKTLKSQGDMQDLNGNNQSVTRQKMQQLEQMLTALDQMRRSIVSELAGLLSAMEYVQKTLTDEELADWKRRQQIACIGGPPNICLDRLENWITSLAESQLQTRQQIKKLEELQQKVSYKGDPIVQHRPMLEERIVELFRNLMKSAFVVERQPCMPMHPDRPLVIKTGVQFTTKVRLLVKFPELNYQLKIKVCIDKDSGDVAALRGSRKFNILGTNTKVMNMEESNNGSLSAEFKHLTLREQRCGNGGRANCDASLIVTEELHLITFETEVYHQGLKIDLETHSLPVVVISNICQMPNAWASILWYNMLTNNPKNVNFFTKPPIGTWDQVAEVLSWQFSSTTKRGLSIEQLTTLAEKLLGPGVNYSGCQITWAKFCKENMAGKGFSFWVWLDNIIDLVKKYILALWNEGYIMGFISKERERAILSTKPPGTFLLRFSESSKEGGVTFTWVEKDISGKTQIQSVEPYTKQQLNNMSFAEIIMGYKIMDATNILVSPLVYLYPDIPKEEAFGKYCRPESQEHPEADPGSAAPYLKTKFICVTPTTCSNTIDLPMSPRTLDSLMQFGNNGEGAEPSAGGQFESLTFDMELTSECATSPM
# method description: Binding affinity to human STAT3-SH2 domain (127 to 722 residues) assessed as dissociation constant by MST assay
endpoint: Kd (nM)
Dear colleague, please return just the value in nM, with no unit written.

Query: Kd; subject: "O=C(c1ccc(-c2noc(-c3ccc(C(F)(F)F)cc3)n2)cc1)N1CCN(Cc2ccc(OCC(F)(F)F)cc2)CC1" 114

* * *

# method description: AUC (0 to t) in ICR mouse plasma at 1 mg/kg, iv measured up to 24 hrs by LC-MS/MS analysis
# Assay type: ADME, organism-based
# Parameters: dose 1 mg/kg, time < 24 hrs, route iv
endpoint: AUC(0-t) at 24 h

Need AUC(0-t) at 24 h of "O=C(c1ccc(-c2noc(-c3ccc(C(F)(F)F)cc3)n2)cc1)N1CCN(Cc2ccc(OCC(F)(F)F)cc2)CC1" , thanks. 1730 ng·h/mL

* * *

# measurement target: UniProt P40763
# method description: Inhibition of human recombinant STAT3 (127 to 722 residues) transcriptional activity expressed in HEK293T cells in presence of IL-6 by Dual-luciferase reporter gene assay
Each item that follows carries a reported pIC50.
pIC50 here is simply -log10 of the concentration when that concentration is written in mol/L.

- compound smiles: "O=C(c1ccc(-c2nc(-c3cccc(C(F)(F)F)c3)no2)nc1)N1CCN(Cc2ccc(OCC(F)(F)F)cc2)CC1"
  pIC50: 6.89

Could you share what pIC50 was measured for "O=C(c1ccc(-c2cn(-c3ccc(C(F)(F)F)cc3)nn2)nc1)N1CCN(Cc2ccc(OCC(F)(F)F)cc2)CC1" , tested on UniProt P40763? 6.95

Tell me reported pIC50 for "O=C(Cc1ccc(OC(F)(F)F)cc1)N1CCN(C(=O)c2ccc(-c3nc(-c4ccc(C(F)(F)F)cc4)no3)nc2)CC1" , tested with UniProt P40763. 6.45

// map "CN1CCN(C(=O)c2ccc(-c3nc(-c4ccc(C(F)(F)F)cc4)no3)nc2)CC1" to recorded pIC50 (system: UniProt P40763) 5.55

State its pIC50 on UniProt P40763: "COc1ccc(CN2CCN(C(=O)c3ccc(-c4nc(-c5ccc(C(F)(F)F)cc5)no4)nc3)CC2)cc1" 6.83

* * *

# measurement target: Cytochrome P450 2C19 (Homo sapiens)
# Sequence (P33261 whole entry): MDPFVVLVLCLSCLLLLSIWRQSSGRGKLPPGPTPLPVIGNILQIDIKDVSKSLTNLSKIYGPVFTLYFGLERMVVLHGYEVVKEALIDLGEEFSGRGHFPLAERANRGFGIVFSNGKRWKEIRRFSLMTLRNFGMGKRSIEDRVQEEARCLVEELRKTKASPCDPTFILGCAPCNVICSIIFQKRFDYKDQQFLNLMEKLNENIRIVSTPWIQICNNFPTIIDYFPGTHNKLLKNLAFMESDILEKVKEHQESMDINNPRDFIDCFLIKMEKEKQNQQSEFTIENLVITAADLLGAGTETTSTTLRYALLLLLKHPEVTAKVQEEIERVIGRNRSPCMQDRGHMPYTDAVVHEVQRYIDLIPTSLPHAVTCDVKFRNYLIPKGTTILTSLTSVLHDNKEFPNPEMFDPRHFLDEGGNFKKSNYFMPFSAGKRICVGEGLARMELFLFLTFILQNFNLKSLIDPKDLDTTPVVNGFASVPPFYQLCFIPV
endpoint: pIC50
On this scale, pIC50 is minus log10 of a concentration expressed in M (mol/L).

Which pIC50 is reported with Cytochrome P450 2C19 (Homo sapiens) for this entry: "O=C(c1ccc(-c2noc(-c3ccc(C(F)(F)F)cc3)n2)cc1)N1CCN(Cc2ccc(OCC(F)(F)F)cc2)CC1" ? 4.80

* * *

# measurement target: UniProt P40763
# method description: Inhibition of human recombinant STAT3 (127 to 722 residues) transcriptional activity expressed in HEK293T cells in presence of IL-6 by Dual-luciferase reporter gene assay
endpoint: IC50

Please report the recorded IC50 for "CC(=O)Oc1ccc(CN2CCN(C(=O)c3ccc(-c4nc(-c5ccc(C(F)(F)F)cc5)no4)nc3)CC2)cc1" . 306 nM

Reported IC50, compound "O=C(c1ccc(-c2nc(-c3ccc(C(F)(F)F)cc3)no2)nc1)N1CCN(Cc2cccc(OCC(F)(F)F)c2)CC1" : ____ 803 nM

Query (compound): "O=C(c1ccc(OC(F)(F)F)cc1)N1CCN(C(=O)c2ccc(-c3nc(-c4ccc(C(F)(F)F)cc4)no3)nc2)CC1" ; field requested: IC50 > 1000 nM

// query IC50 value for entry "O=C(c1ccc(-c2nc(-c3ccc(C(F)(F)F)cc3)no2)nc1)N1CCN(Cc2ccc(Br)cc2)CC1" 40.2 nM

Return reported IC50; argument: "O=C(c1ncc(-c2nc(-c3ccc(C(F)(F)F)cc3)no2)s1)N1CCN(Cc2ccc(OCC(F)(F)F)cc2)CC1" > 1000 nM
